assay_overview: Inhibition of Spanish flu (A/Bervig_Mission/1/18) neuraminidase by noncompetitive inhibition assay
Parameters: species or system Influenza A virus (A/Brevig Mission/1/1918(H1N1))
endpoint: pKi
Note: pKi values are expressed as the negative base-10 logarithm of concentration in M.

Asked: Look up pKi of O=C1C[C@@H](c2ccc(O)cc2)Oc2cc(O)ccc21 and report it.
Given back: 4.48

Asked: Please list pKi recorded for the compound O=C1C[C@@H](c2ccc(O[C@@H]3O[C@H](CO)[C@@H](O)[C@H](O)[C@H]3O)cc2)Oc2cc(O)ccc21
Given back: 3.91

Asked: Tell us which pKi value is on record for O=C(/C=C/c1ccc(O[C@@H]2O[C@H](CO)[C@@H](O)[C@H](O)[C@H]2O[C@H]2OC[C@@](O)(CO)[C@@H]2O)cc1)c1ccc(O)cc1O [ISOLIQUIRITIN APIOSIDE]
Given back: 4.85

Asked: Please look at this compound and report its pKi: COc1c(CC=C(C)C)c(O)cc2oc(=O)c3c4ccc(O)cc4oc3c12
Given back: 5.54

Asked: Please list pKi recorded for the compound O=C(/C=C/c1ccc(O[C@@H]2O[C@H](CO)[C@@H](O)[C@H](O)[C@H]2O)cc1)c1ccc(O)cc1O
Given back: 4.03

Asked: Specify measured pKi for O=C(/C=C/c1ccc(O)cc1)c1ccc(O)cc1O .
Given back: 5.00

Asked: Return reported pKi. Input compound: COc1cc(O)ccc1C(=O)/C=C/c1ccc(O)cc1
Given back: 4.70

Asked: Identify measured pKi corresponding to CC(C)=CCc1c(O)cc2oc(-c3ccc(O)cc3)c(O)c(=O)c2c1O
Given back: 4.48

Asked: Answer with reported pKi of COc1c(CC=C(C)C)c(O)cc2oc(-c3ccc(O)cc3O)cc12
Given back: 4.92

Asked: Note down pKi recorded for O=C1C[C@@H](c2ccc(O[C@@H]3O[C@H](CO)[C@@H](O)[C@H](O)[C@H]3O[C@H]3OC[C@@](O)(CO)[C@@H]3O)cc2)Oc2cc(O)ccc21 [LIQUIRITIN APIOSIDE]
Given back: 4.69

Asked: Read off the recorded pKi for COc1cc(O)c2c(=O)c(OC)c(-c3ccc(O)cc3)oc2c1
Given back: 4.04

Asked: Give me measured pKi, please, for this compound: COc1c2c(cc3oc(=O)c4c5ccc(O)cc5oc4c13)OC(C)(C)CC2
Given back: 4.11

###

System: Influenza A virus (A/Brevig Mission/1/1918(H1N1))
assay_overview: Inhibition of Spanish flu (A/Bervig_Mission/1/18) neuraminidase at 200 uM
endpoint: inhibition (%)
Please respond with the number in % and leave the unit unwritten.

Asked: Assign inhibition to the following record: COc1c2c(cc3oc(=O)c(-c4ccc(O)cc4O)cc13)OC(C)(CO)CC2 (stereo unspecified)
Given back: 10

Asked: Respond only with inhibition recorded for COc1cc2oc(=O)c(-c3ccc(O)cc3O)cc2c(OC)c1CC=C(C)C
Given back: 10

Asked: Consider the molecule COc1cc2c(c(OC)c1CC=C(C)C)C[C@H](c1ccc(O)cc1O)CO2 and give its recorded inhibition.
Given back: 20

Asked: Indicate the recorded inhibition value for this molecule: COc1cc2c(c(OC)c1CC=C(C)C)C(=O)[C@H](c1ccc(O)c(CC=C(C)C)c1O)CO2
Given back: 30

Asked: Hello, please tell me recorded inhibition for this one: COc1ccc(-c2coc3cc(O[C@@H]4O[C@H](CO)[C@@H](O)[C@H](O)[C@H]4O)ccc3c2=O)cc1
Given back: 30

Asked: Give recorded inhibition. COc1c(CC=C(C)C)c(O)cc2c1C[C@H](c1ccc(O)cc1O)CO2
Given back: 20

###

assay_overview: Inhibition of Spanish flu (A/Bervig_Mission/1/18) neuraminidase
Set-up: species or system Influenza A virus (A/Brevig Mission/1/1918(H1N1))
For each of the compounds below, state its IC50.
Number in µM, nothing else.

Asked: Determine from records and report IC50 for CCOC(=O)C1=C[C@@H](OC(CC)CC)[C@H](NC(C)=O)[C@@H](N)C1 [OSELTAMIVIR]
Given back: 1.59

Asked: Output measured IC50 for this item: COc1cc(O)ccc1C(=O)/C=C/c1ccc(O)cc1
Given back: 24.3

Asked: Read the entry O=C1C[C@@H](c2ccc(O[C@@H]3O[C@H](CO)[C@@H](O)[C@H](O)[C@H]3O)cc2)Oc2cc(O)ccc21 [LIQUIRITIN] and write its reported IC50.
Given back: 82.3

Asked: Specify measured IC50 for O=C(/C=C/c1ccc(O[C@@H]2O[C@H](CO)[C@@H](O)[C@H](O)[C@H]2O)cc1)c1ccc(O)cc1O [ISOLIQUIRITIN] .
Given back: 124

Asked: In one line, give reported IC50 of the entry COc1c(CC=C(C)C)c(O)cc2oc(-c3ccc(O)cc3O)cc12 [LICOCOUMARONE] .
Given back: 27.8

Asked: Provide one value: measured IC50 of O=C1C[C@@H](c2ccc(O)cc2)Oc2cc(O)ccc21 [LIQUIRTIGENIN]
Given back: 46.8
